method: qHTS for Inhibitors of the Functional Ribonucleoprotein Complex (vRNP) of Lassa (LASV) Arenavirus: Viability assay - alamar blue signal for LASV Primary Screen (AID 1347083); also: nearly all actives have a fitted effect of over 80% in size
particulars: cell viability, alamar blue fluorescence (LASV minigenome counter-screen); series mostly up to 57.5 µM
Results filed as inconclusive are left out. Active and inactive are the calls of the source. Calls follow the shape of the full dose curve; tested in HEK293 reporter line.
Give your call using only these classes: active, inactive

Q) Which result was noted for this molecule in the test: CN1c2cc(O)c(N=NC(N)=O)cc2CC1S(=O)(=O)O (stereo not drawn)
A) inactive

Q) // outcome(item) with item = "O=C1c2c(O)cccc2[C@@H]([C@@H]2O[C@H](CO)[C@@H](O)[C@H](O)[C@H]2O)c2cc(CO)cc(O)c21"
A) inactive

Q) Test call for this molecule, please: "CC/C=C\CCCCO"
A) inactive

Q) Could you check what this test reported for "Nc1nc(N)c2nc(-c3cccc(O)c3)c(-c3cccc(O)c3)nc2n1" ?
A) active

Q) State the result this test recorded for "C=CC[C@]12C=C(OC)C(=O)C=C1O[C@@H](c1ccc3c(c1)OCO3)[C@H]2C" .
A) inactive

Q) Kindly provide the recorded test outcome for the following molecule: "O=c1ccc2c(O)c3ccoc3cc2o1"
A) inactive

Q) Write down the call the test reported for this molecule. Item: CCCCOc1cc(CC2CNC(=O)N2)ccc1OC (stereo not drawn)
A) inactive

Q) Call for entry "CN1CCc2c(c3ccccc3n2Cc2ccc(C(=O)NO)cc2)C1" :
A) active

Q) What call does the record list for "COc1ccc(/C=C/C(=O)c2c(OC)cc(O)cc2OC)cc1" ?
A) inactive

Q) Would you mind telling me which call this test gave "C[C@]12CCC(=O)C[C@@H]1CC[C@@H]1[C@@H]2CC[C@]2(C)C=CC[C@@H]12" ?
A) inactive

Q) # lookup: test call for "CC(C)CNC(=O)/C=C/C=C/c1ccc2c(c1)OCO2"
A) inactive

Q) So what was the verdict on COc1ccc(CC2=NN3C([C@@H](CCc4ccccc4)[C@@H](C)O)=NC(C)C3C(=O)N2)cc1OC (stereo partly drawn) in this test?
A) inactive

Q) For "C=C1C(=O)C=C[C@]2(C)C[C@@H]3OC(=O)[C@](C)(O)[C@H]3C[C@@H]12" , which call appears in the assay record?
A) active

Q) Give the logged outcome of this assay for the following molecule: "CCC1(CC)C(=O)NC(=O)N(c2ccccc2)C1=O"
A) inactive

Q) Kindly provide the recorded test outcome for the following molecule: CCCCCC1C(=O)CCC1CC(=O)OC (stereo not drawn)
A) inactive

Q) Hi, sorry to bother you, what did the test record for "NC(N)=NC(N)=Nc1cccc(Cl)c1" ?
A) inactive

Q) Each molecule tested received a call. Report the one for "CC/C=C\CCOC(C)=O" .
A) inactive

Q) I would be grateful if you could indicate the recorded call for "CN[C@H]1[C@@H](O)[C@@H]2O[C@@H]3O[C@H](C)CC(=O)[C@]3(O)O[C@@H]2[C@@H](NC)[C@H]1O" .
A) active

Q) Which outcome was assigned to "Cn1c2ccccc2c(=O)c2c(O)cccc21" in this test?
A) inactive

Q) So what was the verdict on "COc1ccc(C(C)=O)c(O)c1" in this test?
A) inactive

Q) Identify the outcome logged in this assay for the molecule shown: O=C1CCC[C@@H]2[C@H]3CCC[N+]4([O-])CCC[C@@H](CN12)[C@@H]34 (stereo partly drawn)
A) inactive

Q) Call for entry "C[C@@]12C[C@@]3(O)O[C@@H](O1)[C@]1(COC(=O)c4ccccc4)[C@@H]3C[C@@]12O[C@@H]1O[C@H](CO)[C@@H](O)[C@H](O)[C@@H]1O" :
A) inactive

Q) Call for entry "O=C1c2c(O)cc(O)cc2O[C@H](c2ccc(O)c(O)c2)[C@@H]1O" :
A) inactive

====

Assign activity change, negative = inhibition to each entry below.
method: Primary qHTS to identify inhibitors of SARS-CoV-2 cell entry (AID 1645846); also: nearly all actives have a fitted effect of over 45% in size
particulars: SARS-CoV-2 pseudovirus cell entry assay, luminescence; at 57.1 µM (top of the series) unless noted
Results filed as inconclusive are left out.
Numeric only. Scale: %

Noted for O=C1CCC(C(=O)O)N1 (stereo not given) : its activity change, negative = inhibition reads -17.5

Entry under test: "Nc1nc(N)c(N=O)c(OCC2CCCCC2)n1" . Its activity change, negative = inhibition was -7.15

Reported activity change, negative = inhibition of "CN1CCc2c(c3ccccc3n2Cc2ccc(C(=O)NO)cc2)C1" : -18.9

The reported activity change, negative = inhibition of the compound "O=C(Nc1cccc(Nc2ncc(Br)c(NCCc3cnc[nH]3)n2)c1)N1CCCC1" was -97.2

Note to self: activity change, negative = inhibition recorded for "CCC[C@H](N[C@@H](C)C(=O)N1[C@@H]2CCCC[C@H]2C[C@H]1C(=O)O)C(=O)OCC" was 1.44

Kindly note the recorded activity change, negative = inhibition for "COc1ccc2c(OCc3nnc4ccc(-c5ccccc5)nn34)ccnc2c1" , which is -13.2

activity change, negative = inhibition measured on "O=C1NCCc2[nH]c(-c3ccncc3)cc21" = -95

For this compound ( "CN1N=C(N)c2cn([C@@H]3O[C@H](COP(=O)(O)O)[C@@H](O)[C@@H]3O)c3ncnc1c23" ), measured activity change, negative = inhibition is -94.7

Form field activity change, negative = inhibition, entry "C/C(=C\c1csc(C)n1)[C@@H]1C[C@@H]2O[C@@H]2CCC[C@H](C)[C@H](O)[C@@H](C)C(=O)C(C)(C)[C@@H](O)CC(=O)O1" : -70

Value of activity change, negative = inhibition reported for the compound "CC(C)NC[C@@H](O)COc1cccc2ccccc12" is -4.9

====

target.of.assay: Nucleoprotein (Lymphocytic choriomeningitis virus (strain Armstrong)) (UniProt P09992)
Sequence (P09992 whole entry, looked up): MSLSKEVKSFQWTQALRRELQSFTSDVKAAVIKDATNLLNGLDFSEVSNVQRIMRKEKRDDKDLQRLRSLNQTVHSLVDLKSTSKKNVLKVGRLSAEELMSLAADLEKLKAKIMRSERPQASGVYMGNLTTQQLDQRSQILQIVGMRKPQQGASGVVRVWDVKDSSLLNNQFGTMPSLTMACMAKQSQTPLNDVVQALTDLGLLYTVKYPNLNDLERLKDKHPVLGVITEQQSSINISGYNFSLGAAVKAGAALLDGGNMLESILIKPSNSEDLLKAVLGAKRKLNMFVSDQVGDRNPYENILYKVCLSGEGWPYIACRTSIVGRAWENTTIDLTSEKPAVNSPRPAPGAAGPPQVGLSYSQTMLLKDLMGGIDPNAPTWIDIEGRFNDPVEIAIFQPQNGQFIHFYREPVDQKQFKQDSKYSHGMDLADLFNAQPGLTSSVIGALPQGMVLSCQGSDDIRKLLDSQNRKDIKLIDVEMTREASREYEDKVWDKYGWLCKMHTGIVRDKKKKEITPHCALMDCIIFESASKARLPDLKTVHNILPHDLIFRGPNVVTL
method: qHTS for Inhibitors of the Functional Ribonucleoprotein Complex (vRNP) of Lymphocytic Choriomeningitis Arenaviruses (LCMV): LCMV Primary Screen - GLuc reporter signal (AID 1347086); also: nearly all actives have a fitted effect of over 70% in size
particulars: LCMV minigenome vRNP cell assay, Gaussia luciferase reporter; series mostly up to 57.5 µM
Inconclusive results are not listed. Active and inactive are the calls of the source. Calls follow the shape of the full dose curve.
Please state which outcome applies, choosing from YES = active, NO = inactive

Q) Given "CC(=O)Oc1ccc2c(C)cc(=O)oc2c1" , state the outcome it received in this test.
A) NO

Q) Fill in: this test's call for C[C@H]1CCC2[C@](C)(CO)[C@@H](O)CC[C@]2(C)[C@@]12CCC(CO)(CCO)O2 (stereo partly specified) is ___
A) NO

Q) // outcome(item) with item = COc1cc(C2C(c3ccccc3)C(c3cc(OC)cc(=O)o3)C2c2ccccc2)oc(=O)c1 (stereo unspecified)
A) NO

Q) What was the test verdict on "CC(C)C(=O)Oc1ccc(CO)cc1[C@H](CCN(C(C)C)C(C)C)c1ccccc1" ?
A) NO

Q) Fill in: this test's call for "O=C1c2ccccc2-[n+]2ccc3c([nH]c4ccccc43)c21" is ___
A) YES

Q) # outcome recorded in this test, key = "CCCO"
A) NO

Q) Which outcome did this test record for the molecule O=C1C=C(C2OC(CO)C(O)C2O)C(=O)N1 (stereo unspecified) ?
A) NO

Q) Look up the recorded call for "CCOC(=O)c1ccccc1N" in this test.
A) NO

Q) State the result this test recorded for "CC(C)(O)[C@H](O)Cc1cc2ccc(=O)oc2cc1O[C@@H]1O[C@H](CO)[C@@H](O)[C@H](O)[C@H]1O" .
A) NO

Q) Hi, sorry to bother you, what did the test record for C[C@]12CC[C@@H](O)CC1=CC(=O)C1C2CC[C@]2(C)C(=O)[C@H](O)CC12 (stereo partly specified) ?
A) NO

Q) Short answer needed: outcome of this test for NC(C(=O)O)C1ON=C(Cl)C1O (stereo unspecified) ?
A) NO

Q) Tell me the recorded outcome of this test for "O=C(OCCN1CCOCC1)C1(c2ccccc2)CCCCC1" .
A) NO

Q) Returns: the outcome recorded for "NCCNS(=O)(=O)c1cccc2c(Cl)cccc12" in this assay.
A) NO

Q) Which result was noted for this molecule in the test: C[C@@H]1CC[C@H]2[C@H](C)[C@H]3CC[C@H]4C5[C@@H](O)CC6=CC(=O)CC[C@]6(C)[C@H]5C[C@H]4C3C(=O)N2C1 (stereo partly specified)
A) NO

Q) What classification did "CN1[C@@H](CC(=O)c2ccccc2)CCC[C@H]1C[C@H](O)c1ccccc1" end up with in this test?
A) NO

Q) Hello, I am checking results. What call was entered for "COc1cc2c(cc1OC)[C@H]1C(=O)c3ccc4c(c3O[C@H]1CO2)C[C@@H](C(C)(C)O)O4" ?
A) NO

Q) Just curious, what result did "CCC(=O)NCC[C@@H]1CCc2ccc3c(c21)CCO3" get here?
A) NO

Q) # outcome recorded in this test, key = COc1cc(C2c3cc4c(c(O)c3CC3COC(=O)C32)OCO4)cc(OC)c1O (stereo unspecified)
A) NO

Q) In this assay, the call recorded for "O=C1/C(=C\c2ccc(O)c(O)c2)Oc2c1ccc(O[C@@H]1O[C@H](CO)[C@@H](O)[C@H](O)[C@H]1O)c2O" was what?
A) NO

Q) Kindly provide the recorded test outcome for the following molecule: "CC1(C)C=Cc2c(ccc(C(=O)/C=C/c3ccccc3)c2O)O1"
A) NO

Q) Please state the recorded outcome for this molecule: "CC(C)(O[C@@H]1O[C@H](CO)[C@@H](O)[C@H](O)[C@H]1O)[C@H]1Cc2cc3ccc(=O)oc3cc2O1"
A) NO
